molecular target: Retinaldehyde dehydrogenase 3 (Homo sapiens) (UniProt P47895); experiment: qHTS for Inhibitors of the Aldehyde Dehydrogenase Family (ALDH1A3) Primary screen (AID 2061315); conditions: ALDH inhibition qHTS; series mostly up to 56 µM
Records with an inconclusive call do not appear. Calls of active or inactive are those of the source. Calls come from the whole dose curve; as a rule, active = well fitted inhibition curve with a large enough effect; inconclusive = small, poorly fitted or top-dose-only effect; inactive = no such curve, though single readings can be large or run the other way.
Endpoint label: activity change, negative = inhibition

Molecule: O=S(=O)(c1ccc2c(c1)OCCO2)N1CCN(S(=O)(=O)c2c(Cl)cc(C(F)(F)F)cc2Cl)CC1
Experimental value: inactive
--
Molecule: Cc1cc2c(s1)c1cnn(Cc3c(F)c(F)c(C(F)(F)F)c(F)c3F)c(=O)c1n2C
Experimental value: inactive
--
Molecule: Cc1ccc(NS(=O)(=O)c2cc3c(cc2NC(C)CO)NC(=O)CC3)cc1C (configuration not stated)
Experimental value: inactive
--
Molecule: Fc1ccc(-c2ccc(Nc3nc(-c4ccncc4)nc4ccccc34)cc2F)c(F)c1
Experimental value: inactive
--
Molecule: CC(C)c1cc(C(=O)N2CC[C@H](NC(=O)C3CC3)C2)n[nH]1
Experimental value: inactive
--
Molecule: O=C(NCCc1nc2ccccc2n1CCOc1ccc(Cl)cc1)C1CCCCC1
Experimental value: inactive
--
Molecule: CCN(CC)CCCCn1c(-c2ccccc2)nc2c(N3CCOCC3)nc(C)nc21
Experimental value: inactive
--
Molecule: COc1ccc(-c2ccc(=O)n(CC(=O)NCCc3ccccc3)n2)cc1OC
Experimental value: inactive
--
Molecule: CC(=O)Nc1sc2c(c1-c1ccc3[nH]ccc3c1)CCNC2
Experimental value: inactive
--
Molecule: CS(=O)(=O)c1ccc(C(=O)OCC(=O)N2CCOCC2)cc1[N+](=O)[O-]
Experimental value: inactive
--
Molecule: FC(F)(F)c1ccccc1-c1nccc(NCc2ccc(-c3cccnc3)cc2)n1
Experimental value: inactive
--
Molecule: Cc1cc(NC(=O)Nc2cccc(-c3ccncc3)n2)ccc1Br
Experimental value: inactive
--
Molecule: O=c1[nH]c(CN2CCOCC2)nc2sc3c(c12)CCCC3
Experimental value: inactive
--
Molecule: COc1ccc(CCC(=O)c2c(O)cc(O)cc2O[C@@H]2O[C@H](CO)[C@@H](O)[C@H](O)[C@H]2O)cc1
Experimental value: inactive
--
Molecule: COc1ccccc1-c1csc(N2CCC(C(N)=O)CC2)n1
Experimental value: inactive
--
Molecule: O=C1CCCC2=C1C(c1[nH]ncc1Cl)N=C(Nc1nc3cc([S+](=O)([O-])N4CCCC4)ccc3o1)N2 (configuration not stated)
Experimental value: inactive
--
Molecule: O=c1c2[nH]c3ccsc3c2cnn1Cc1ccccc1F
Experimental value: inactive
--
Molecule: CC1=CC(=O)C2C(C)(C)CCCC2(C)C12CCC1(COC(=O)C1)O2 (configuration not stated)
Experimental value: inactive
--
Molecule: CC(=O)Nc1sc2c(c1C(=O)O)CCNC2
Experimental value: inactive
--
Molecule: Cc1cc(C)nc(NC(=S)N2CCN(c3ncccn3)CC2)c1
Experimental value: inactive
--
Molecule: Cc1ccc(S(=O)(=O)Nc2ccc(Cl)cc2C(=O)Nc2nc(-c3ccccc3)cs2)cc1
Experimental value: inactive
--
Molecule: COc1cc(O)c(C(CC(=O)N2CCC(Cc3ccccc3)CC2)c2ccc3c(c2)OCO3)c(OC)c1 (configuration not stated)
Experimental value: inactive
--
Molecule: O=C(Nc1ccccc1)Nc1ccccc1
Experimental value: inactive
--
Molecule: Cc1noc(C)c1-c1ccc2ncnc(NCC3CCCCN3C)c2c1 (configuration not stated)
Experimental value: inactive
--
Molecule: CC1(C)CCC(C)(C)c2cc3c(cc21)Sc1ccccc1N=C3c1ccc(C(=O)O)cc1
Experimental value: inactive
--
Molecule: CN1CCN(c2ccc(Nc3nc(-c4ccncc4)nc4ccccc34)cc2F)CC1
Experimental value: inactive
--
Molecule: Fc1cccc(CSc2nc3ncc(Br)cc3[nH]2)c1
Experimental value: inactive
--
Molecule: CC(C)(C)OC(=O)N1CCN(c2ccc(NCc3ccc(-c4ccc(C#N)cc4)nc3)cc2)CC1
Experimental value: inactive
--
Molecule: COc1ccc2cc3c(NC(=O)c4ccco4)nn(C)c3nc2c1
Experimental value: inactive
--
Molecule: COc1ccc(C2Nc3ccccc3C(=O)N2Cc2ccccn2)cc1COc1c(C)cccc1C (configuration not stated)
Experimental value: inactive
--
Molecule: Cc1ccc(CSc2nnc(-c3cccc4ccccc34)o2)cc1
Experimental value: inactive
--
Molecule: CC(C)(C)OC(=O)NCCOCCOCCOc1ccc(-c2no[n+]([O-])c2C#N)cc1
Experimental value: inactive
--
Molecule: O=C(CO)N1CCC(c2[nH]nc(-c3ccc(Cl)cc3)c2-c2ccncn2)CC1
Experimental value: inactive
--
Molecule: Cc1cc(N[S+](=O)([O-])c2ccc(NC(=O)Cc3ccc(F)c(C(F)(F)F)c3)cc2)no1
Experimental value: inactive
--
Molecule: O=C(OCC#CCSc1nnc(-c2ccc3ccccc3c2)o1)c1ccc(F)cc1
Experimental value: inactive
--
Molecule: N#Cc1c(-c2ccc(C(F)(F)F)cc2)no[n+]1[O-]
Experimental value: inactive
--
Molecule: CC(C)(C)n1cnc2cc(C(=O)N3CCCCC3)ccc21
Experimental value: inactive
--
Molecule: Cc1ccc(OCCn2c(CCNC(=O)c3cccc(Br)c3)nc3ccccc32)cc1
Experimental value: inactive
--
Molecule: O=C(Cc1ccc(Cl)c(Cl)c1)Nc1ccc([S+](=O)([O-])Nc2ccc([N+](=O)[O-])cc2)cc1
Experimental value: inactive
--
Molecule: O=C(Cn1nc(-c2ccccc2)ccc1=O)NCCc1ccccc1
Experimental value: inactive
--
Molecule: CCN1CCCC1Cn1c(-c2ccccc2)nc2c(N3CCOCC3)nc(C)nc21 (configuration not stated)
Experimental value: inactive
--
Molecule: Cc1cccc(CNc2ncnc3ccc(-c4cccc(Cl)c4)cc23)c1
Experimental value: inactive

====

assay: BET inhibitor-based combinations targeting novel dependencies in MECOM-rearranged (r) AML: OCI-AML3 cell line (AID 2202232); conditions: CellTiter-Glo luminescence, 48 h; OCI-AML3 viability; series mostly up to 46 µM; note: nearly all actives have a fitted effect of over 35% in size
Results filed as inconclusive are left out. Activity calls are given as the source filed them. Calls come from the whole dose curve; as a rule, active = well fitted inhibition curve with a large enough effect; inconclusive = small, poorly fitted or top-dose-only effect; inactive = no such curve, though single readings can be large or run the other way.
Classes used: YES = active, NO = inactive

Compound: CC(C)C(N)C(=O)OCC(CO)OCn1cnc2c(=O)[nH]c(N)nc21 (centres undefined)
Discrete label: NO
//
Compound: CC(C)NC(=O)C1CCC(n2c(NC(=O)c3ccc(F)cc3)nc3ccc(CN4CCC(C(C)(C)O)CC4)cc32)CC1 (centres undefined)
Discrete label: YES
//
Compound: C[C@H](CCC(=O)O)[C@H]1CC[C@H]2[C@@H]3[C@H](O)C[C@@H]4C[C@H](O)CC[C@]4(C)[C@H]3CC[C@]12C
Discrete label: NO
//
Compound: C#Cc1cccc(Nc2ncnc3cc4c(cc23)OCCOCCOCCO4)c1
Discrete label: NO
//
Compound: C[C@@H]1CC(=O)Nc2cccc(-c3cnn(C(C)(C)C)c3)c2N1
Discrete label: YES
//
Compound: C[C@@H](OC[C@@]1(c2ccccc2)CC[C@]2(CCC(=O)N2)CN1)c1cc(C(F)(F)F)cc(C(F)(F)F)c1
Discrete label: YES
//
Compound: CCN(CC)CCNC(=O)c1c(C)[nH]c(/C=C2/C(=O)Nc3ccc(-c4csc(-c5ccccc5)n4)cc32)c1C
Discrete label: YES
//
Compound: CC[C@@]1(O)C(=O)OCc2c1cc1n(c2=O)Cc2c-1nc1ccccc1c2CCNC(C)C
Discrete label: YES
//
Compound: CCCCC[C@H](O)C=C[C@H]1[C@H](O)CC(=O)[C@H]1CC=CCCCC(=O)O
Discrete label: YES

====

molecular target: Aldehyde dehydrogenase 1A1 (Homo sapiens); assay: qHTS for Inhibitors of the Aldehyde Dehydrogenase Family (ALDH1A1) Confirmatory screens (AID 2061316); conditions: ALDH inhibition qHTS; series mostly up to 47.3 µM; note: nearly all actives have a fitted effect of over 65% in size
Inconclusive results are not listed. The source made the active and inactive calls. Calls come from the whole dose curve; as a rule, active = well fitted inhibition curve with a large enough effect; inconclusive = small, poorly fitted or top-dose-only effect; inactive = no such curve, though single readings can be large or run the other way.
Outcomes: active, inactive

Compound: Cc1c(C(=O)OCC(C)(C)C)[nH]c2c1C(=O)CC(c1ccco1)C2 (stereo unspecified)
Discrete label: active
--
Compound: CCOC(=O)c1c(C)n(-c2ccc(OC)cc2)c2ccc(OC(=O)COc3ccccc3)cc12
Discrete label: inactive
--
Compound: CC(=O)Nc1sc2c(c1-c1cc3ccccc3o1)CCNC2
Discrete label: active
--
Compound: CCOC(=O)Cn1c(=O)oc2cc(S(=O)(=O)N3CCN(c4ccc(Cl)cc4)CC3)ccc21
Discrete label: inactive
--
Compound: O=C(OCC#CCSc1nnc(-c2cccc3ccccc23)o1)c1ccco1
Discrete label: active
--
Compound: N#Cc1cccc(OC2=NS(=O)(=O)c3ccccc32)c1
Discrete label: active

====

assay: qHTS for Inhibitors of the Aldehyde Dehydrogenase Family (ALDH1A2, ALDH1A3, ALDH2, ALDH3A1) (AID 2061307); conditions: ALDH inhibition qHTS; series mostly up to 50.3 µM; note: nearly all actives have a fitted effect of over 50% in size; for Potency: test system not described further here; potency is the fitted concentration of half-maximal effect
Records with an inconclusive call do not appear. Calls of active or inactive are those of the source. Calls come from the whole dose curve; as a rule, active = well fitted inhibition curve with a large enough effect; inconclusive = small, poorly fitted or top-dose-only effect; inactive = no such curve, though single readings can be large or run the other way.

Compound: CCc1cccc(C)c1Nc1c(-c2ccc(N(C)C)cc2)nc2ncccn12
Potency: inactive
--
Compound: O=C(Nc1nc(-c2ccccc2)cs1)c1ccncc1NS(=O)(=O)c1ccc2ccccc2c1
Potency: 2.51 µM (active)
--
Compound: CC(=O)Nc1cccc(OCc2cccc(C3Nc4ccccc4C(=O)N3Cc3ccco3)c2)c1 (stereo not given)
Potency: 7.94 µM (active)
--
Compound: Cc1cc(C)nc(NC(=S)N2CCN(c3ccc4cn(C)nc4c3)CC2)c1
Potency: inactive
--
Compound: O=C(O)c1csc(-n2[nH]c(-c3c(F)cccc3F)cc2=O)n1
Potency: inactive
--
Compound: Cc1cccc(NC(=O)c2nc(C)n(-c3ccc(F)cc3)n2)n1
Potency: inactive
--
Compound: Cc1cc(-c2nnc3n2CCCCC3)c(C)n1-c1cccc2ccccc12
Potency: inactive
--
Compound: COc1ccc(C2=NN(CC(=O)NCCc3ccc(OC)c(OC)c3)C(=O)CC2)cc1
Potency: inactive
--
Compound: O=C(O)c1ccc(O)c2ncc(-c3ccc(C(=O)N4CCNCC4)cc3)cc12
Potency: inactive
--
Compound: CC(C)(C)NC(=O)c1ccc(NC(=O)c2cn(-c3ccccc3)nc2-c2cccnc2)cc1
Potency: inactive
